Where do the numbers come from? From patent US4405743A.

Provide the recorded IC50 for the entries that follow.
# Test system: Penicillium digitatum
# method: Antimicrobial activity (mycelium growth inhibition, PDA medium)
# Assay type: cell-based
# condition-info: 24° C., read-out: ED50 value
Give bare numbers, in µg/mL.

Below, 3 compounds whose answers are already recorded.
> print(dat)
                       sample.smiles  readout.value
1  Cc1cc(C)n(-c2nccc(Sc3ccccc3)n2)n1            1.3
2         CCOc1nc(-n2nc(C)cc2C)ncc1C            0.6
3   CCCCc1c(C)nc(-n2nc(C)cc2C)nc1OCC            1.1

Take each entry in turn and give its IC50.
1. Cc1ccc(Oc2cc(C)nc(-n3nc(C)cc3C)n2)c(C)c1
2. Cc1cc(C)n(-c2nc(C)c(C)c(Oc3ccccc3)n2)n1
3. CCCCc1c(C)nc(-n2nc(C)cc2C)nc1SCC
4. Cc1cc(C)n(-c2ncc(C)c(Sc3ccccc3)n2)n1

1. 1.2
2. 1.4
3. 2
4. 0.8

---

# Tested on: Phoma lingam
# method: Antimicrobial activity (mycelium growth inhibition, PDA medium)
# Assay type: cell-based
# condition-info: Plenodomus lingam, 24° C., read-out: ED50 value
Provide the recorded IC50 for the entries that follow.
Numbers only, in µg/mL.

> print(dat)
                          sample.smiles  property  measurement.units  readout.value
1      CCCCc1c(C)nc(-n2nc(C)cc2C)nc1OCC      IC50              µg/mL            2.6
2  Cc1cc(C)n(-c2ncc(C)c(Sc3ccccc3)n2)n1      IC50              µg/mL            4.6
3      CCCCc1c(C)nc(-n2nc(C)cc2C)nc1SCC      IC50              µg/mL            3.2

Next compound, IC50 to be filled in.
Look up IC50 with Phoma lingam for this compound: `Cc1cc(C)n(-c2nccc(Sc3ccccc3)n2)n1`
2.1
